# System: Trypanosoma cruzi amastigotes cultured in 3T3 fibroblast cells
# Assay remarks: Assay for growth inhibition of kinetoplastid parasite Trypanosoma cruzi (beta-galactosidase Tulahuen strain, CPRG readout)
# Assay type: cell-based
# Assay setup: Trypanosoma cruzi, Fibroblast, T. cruzi amastigotes in 3T3 fibroblast cells; read-out: Buckner infectious T. cruzi EC50
Assign EC50 to each entry below.
Answer as a quantity: numeral, then unit.

Cc1nc(C2CC2)oc1C(=O)Nc1ccc(F)c(-n2cc3cc(C(C)C)cnc3n2)c1 | 410 nM
Cc1nc(C)c(C(=O)Nc2ccc(F)c(-n3cc4cc(-c5ccccn5)cnc4n3)c2)o1 | 3.8 nM
O=C(Nc1ccc(F)c(-n2cc3cc(CC(F)(F)F)cnc3n2)c1)c1ccco1 | 9.5 nM
O=C(Nc1ccc(F)c(-n2cc3cc(N4CC(F)C4)cnc3n2)c1)N1CC(F)C1 | 5 nM
Cc1nc(C)c(C(=O)Nc2ccc(F)c(-n3cc4cc(CC(F)(F)F)cnc4n3)c2)o1 | 4.9 nM

List the reported EC50 of each compound below.
1. Cc1nc(C)c(C(=O)Nc2ccc(F)c(-n3cc4cc(N(C)C)cnc4n3)c2)o1
2. O=C1CCC2(CN(c3cnc4nn(-c5cc(NC(=O)N6CC(F)C6)ccc5F)cc4c3)C2)N1

-- reply
["23 nM", "951 nM"]

-- ask Can you look up the measured EC50 of O=C(Nc1ccc(F)c(-n2cc3cc(N4CC5(CC5)C4)cnc3n2)c1)N1CC(F)C1 for me?
-- reply 5 nM
